# method.notes: Solubility estimation in solvents at RT
# Assay type: physicochemical
# run.parameters: n-heptane, organic solvent or mixture, thermodynamic from solid
endpoint.name: solubility

Note solubility for the compound shown: CCOCc1nc2c(N)nc3ccccc3c2n1CC(C)(C)O [sulfate Type A (807919-21-A)]
< 2100 µg/mL

###

# method.notes: Kinetic solubility in water and bio-relevant media (SGF, FaSSIF, FeSSIF) at RT
# Type: physicochemical
# run.parameters: water and bio-relevant media (SGF, FaSSIF, FeSSIF), water, water/bio-relevant media, summary
Structures can show the parent of a compound that is named as a salt.
endpoint.name: solubility kinetic

Note solubility kinetic for the molecule shown: CCOCc1nc2c(N)nc3ccccc3c2n1CC(C)(C)O [Mono-HCl salt Type A, resiquimod]
> 3800 µg/mL
